- assay_notes: chemical genetic growth profiling, strain panel (AID 1159580);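 further: tested at 20 µM; growth read once vehicle control cultures reached saturation at 30 °C; 1 = growth at the plate median or of vehicle wells; lower values mean less growth of the strain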
- condition_info: S. cerevisiae deletion strains, growth OD, locus YEL061C, strain CIN8, active compounds read low
Hit rate of the full screen: of about 5,500 compounds, about 2,000 (36%) were called active. Roughly 18% stayed inconclusive and do not appear here. Some of the results follow.
result_type: normalized growth
Format: numeric value only, no unit, no commentary.

Cc1cc(C(C)(C)C)cc(C)c1CC1=NCCN1
1.02
COc1cc(/C=C2/SC(=S)NC2=O)cc(OC)c1OC
0.977

What value of measured normalized growth is listed for `CC(C)(C)c1ccc(CSc2nc(N)cc(=O)[nH]2)cc1` ?
0.995

What value of measured normalized growth is listed for `Cc1cc(C(C)(C)C)c(O)c(C)c1CC1=NCCN1` ?
0.997

---

- assay_notes: chemical genetic growth profiling, strain panel (AID 1159580);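 further: tested at 20 µM; growth read once vehicle control cultures reached saturation at 30 °C; 1 = growth at the plate median or of vehicle wells; lower values mean less growth of the strain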
- condition_info: S. cerevisiae deletion strains, growth OD, locus YEL037C, strain rad23, active compounds read low
The whole screen tested about 5,500 compounds, of which about 2,000 (36%) were called active. Another 18% or so got no clear call; they are omitted. The list shows a part of the results.
Measured normalized growth values are reported for all entries that follow.
Format: numeric value only, no unit, no commentary.

Use the examples below as a reference point.
Cc1ccc(N(CC2=NCCN2)c2cccc(O)c2)cc1
1.03
CNS(=O)(=O)Cc1ccc2[nH]cc(CCN(C)C)c2c1
1.03
CN(C)CCc1c[nH]c2ccc(CS(=O)(=O)N3CCCC3)cc12
0.976
CNCC[C@@H](Oc1ccccc1)c1ccccc1
0.988
C[C@]12CCC(=O)C=C1CCC1C2[C@@H](O)C[C@@]2(C)C1CC[C@]2(O)C(=O)COC(=O)CCC(=O)O (stereo not given in full)
1.01
C#CC1(O)CCC2C3CCC4=CC(=O)CCC4(C)C3CCC21C (stereo not given)
0.969

What value of measured normalized growth is listed for `CN1CCN(CC(=O)N2c3ccccc3C(=O)Nc3cccnc32)CC1` ?
1.01

What value of measured normalized growth is listed for `Cc1cc(C(C)(C)C)cc(C)c1CC1=NCCN1` ?
1

What value of measured normalized growth is listed for CC1(C)C(=O)[C@@H]2C[C@@]3(O)C4=CC(=O)O[C@@H](c5ccoc5)[C@]4(C)CCC3[C@@](C)(C2=O)[C@H]1CC(=O)O (stereo not given in full) ?
1.01

What value of measured normalized growth is listed for C#C[C@]1(O)CCC2C3CCC4=Cc5oncc5C[C@]4(C)C3CC[C@@]21C (stereo not given in full) ?
0.971

---

- assay_notes: chemical genetic growth profiling, strain panel (AID 1159580);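 further: tested at 20 µM; growth read once vehicle control cultures reached saturation at 30 °C; 1 = growth at the plate median or of vehicle wells; lower values mean less growth of the strain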
- condition_info: S. cerevisiae deletion strains, growth OD, locus YFR028C, strain CDC14, active compounds read low
The whole screen tested about 5,500 compounds, of which about 2,000 (36%) were called active. Inconclusive results (about 18%) are left out. This is one part of the list.
result_type: normalized growth
Format: numeric value only, no unit, no commentary.

Clc1ccc(N/N=C\c2sccc2Oc2ccccc2)cc1
0.965
S=C(N/N=C\c1cccs1)NC1CC2CCC1C2 (stereo unspecified)
0.944
O=C(Nc1cc2c(s1)-c1cc(Cl)ccc1SC2)Oc1ccccc1
1

What value of measured normalized growth is listed for CN1c2ccccc2C(C)(C)C12C=Cc1cc(O)ccc1O2 (stereo unspecified) ?
0.976

What value of measured normalized growth is listed for `CC(C)(C)C(=O)c1sc2sc(C(=O)C(C)(C)C)c(N)c2c1N` ?
0.982

What value of measured normalized growth is listed for `COc1cc(N2C(=O)C=CC2=O)cc(OC)c1OC` ?
0.928

Data provenance: PubChem BioAssay AID1159580
